system: maximal electroshock-induced seizures; experiment: Maximal electroshock-induced seizure (MES) test in mice; assay type: in vivo, mouse; details: protective index, chimney TD50 / MES ED50, pretreatment time 60 min
OUTCOME_MEASURE: PI (TD50/ED50)

* Cc1ccc(-n2c(-c3cccc(Cl)c3)n[nH]c2=S)cc1 [Compound 10a] | 1.8
* Fc1ccccc1-n1c(-c2ccc(Cl)cc2)n[nH]c1=S [Compound 12a] | 1.9
* S=c1[nH]nc(-c2cccc(Cl)c2)n1-c1ccc(Br)cc1 | 1.9
* S=c1[nH]nc(-c2ccc(Cl)cc2)n1-c1ccc(Br)cc1 [Compound 16a] | 3.0
* S=c1[nH]nc(-c2ccc(Cl)cc2)n1-c1ccccc1Br [Compound 15a] | 1.8
